tgt: COX-2 (Homo sapiens)
Construct: incubated at 37° C. for 24 hours to induce COX-2; from tissue; host or cells: heparinised human whole blood from healthy donors, stimulated with LPS
experimentDescription: Human whole blood assay, in vitro COX-2 assay (LPS-stimulated, PGE2 by EIA)
Type: cell-based
experimentalSetup: ratio of IC50 COX-1 / IC50 COX-2, human whole blood
measurementType: COX Selectivity COX-1/COX-2
Lab note: record the figure alone, no unit after it.

CC(C(=O)O)c1ccc(CC2CCCC2=O)cc1F (stereo not drawn)	1.7

Next item in the queue.
Inquiry: Observed COX Selectivity COX-1/COX-2 on COX-2 (Homo sapiens) for CC(C(=O)O)c1ccc(OC2CCCC2)cc1F (racemic) , please.
Reply text: 0.1

###

tgt: COX-2 (Homo sapiens, UniProt P35354)
Construct: incubated at 37° C. for 24 hours to induce COX-2; from tissue; host or cells: heparinised human whole blood from healthy donors, stimulated with LPS
Sequence (P35354 18-604): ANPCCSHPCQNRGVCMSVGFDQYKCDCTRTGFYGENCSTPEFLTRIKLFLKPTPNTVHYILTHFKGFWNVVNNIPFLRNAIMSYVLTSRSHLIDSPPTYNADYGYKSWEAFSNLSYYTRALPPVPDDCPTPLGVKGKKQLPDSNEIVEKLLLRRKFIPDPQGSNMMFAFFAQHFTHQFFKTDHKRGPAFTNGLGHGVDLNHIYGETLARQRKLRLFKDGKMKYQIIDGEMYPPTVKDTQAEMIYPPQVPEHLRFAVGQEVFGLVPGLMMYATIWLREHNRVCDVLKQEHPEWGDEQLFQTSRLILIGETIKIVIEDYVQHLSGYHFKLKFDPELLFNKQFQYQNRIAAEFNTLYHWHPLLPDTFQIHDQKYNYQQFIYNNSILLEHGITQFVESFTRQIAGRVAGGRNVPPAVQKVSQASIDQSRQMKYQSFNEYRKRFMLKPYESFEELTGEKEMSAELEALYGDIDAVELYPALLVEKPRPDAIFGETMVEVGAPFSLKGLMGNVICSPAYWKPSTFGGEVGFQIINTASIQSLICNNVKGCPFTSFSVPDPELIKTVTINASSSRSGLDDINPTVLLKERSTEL
experimentDescription: Human whole blood assay, in vitro COX-2 assay (LPS-stimulated, PGE2 by EIA)
Type: cell-based
experimentalSetup: ratio of IC50 COX-1 / IC50 COX-2, human whole blood
measurementType: COX Selectivity COX-1/COX-2

CC(C(=O)O)c1ccc(CC2CCCC2=O)cc1 (stereo not shown) [Compound 1, Loxoprofen, reference compound]	2.3
CC(C(=O)O)c1ccc(Cc2ccco2)cc1F (stereo not shown) [Compound 21a]	5.3
CC(C(=O)O)c1ccc(NC2CCCC2)cc1F (stereo not shown) [Compound 11a]	0.7

Inquiry: Bench note: what COX Selectivity COX-1/COX-2 did CC(C(=O)O)c1ccc(Cc2ccoc2)cc1F (racemic) [Compound 22a] show?
Reply text: 7.6
